Origin of measurements: patent US20250326722A1

Assay: Pharmacokinetic determination in mice (plasma)
Assay type: in vivo, C57BL/6J mice
Settings: male, C57BL/6J, mouse, 5 mg/kg, C57 mice, PO administration, 5 mpk, read-out: Half-life t1/2 (converted)

COMPOUND | VALUE UNITS | half-life
O=C1c2nc(C(F)(F)F)ccc2CN1c1ccc(N[C@H]2CC[C@H](Nc3nc4cc(F)ccn4n3)C2)nc1 [Example 155] | min | 354
O=C1c2ncccc2CN1c1ccc(N[C@H]2CC[C@H](Nc3nc4cc(F)ccn4n3)C2)nc1 [Example 129] | min | 234
O=C1c2ncccc2CN1c1ccc(N[C@H]2CC[C@H](Nc3nc4cc(C(F)(F)F)ccn4n3)C2)nc1 [Example 143] | min | 234

====

Tested on: LDLR level in HepG2 cells
Test: Effect on the LDLR level in HepG2 cells (ELISA)
Type: cell-based, human
Set-up: concentration or dose not given beside the values
Conditions: 48 hours incubation, LDLR ELISA of lysate
# Lookup of reported LDLR expression level keyed by entry

MOLECULE | LDLR expression level [%]
FC(F)Oc1cnc(N[C@H]2CC[C@H](Nc3ccc(-c4cccc5ccnn45)cn3)C2)nc1 | 278
O=S1(=O)CCCCN1c1ccc(N[C@H]2CC[C@H](Nc3ncc(OC(F)F)cn3)C2)nc1 | 105
O=C1c2ncccc2CN1c1ccc(N[C@H]2CC[C@H](Nc3ncc(C(F)(F)F)nn3)C2)nc1 | 117
O=C1c2c(cccc2C(F)(F)F)CN1c1ccc(N[C@H]2CC[C@H](Nc3ncc(C(F)(F)F)nn3)C2)nc1 | 129
N#Cc1cnn2c(-c3ccc(N[C@H]4CC[C@H](Nc5ncc(OC(F)F)cn5)C4)nc3)cccc12 | 274
Fc1cnn2c(-c3ccc(N[C@H]4CC[C@H](Nc5ncc(OC(F)F)cn5)C4)nc3)cccc12 | 215

====

Test: Pharmacokinetic determination in mice (plasma)
Format: in vivo, C57BL/6J mice
Settings: male, C57BL/6J, mouse, 5 mg/kg, C57 mice, PO administration, 5 mpk, read-out: Area under the curve AUC0-∞

MOLECULE | AUC(0-inf), ng·h/mL
O=C1c2nc(C(F)(F)F)ccc2CN1c1ccc(N[C@H]2CC[C@H](Nc3nc4cc(F)ccn4n3)C2)nc1 [Example 155] | 25500
Cc1cc2c(cn1)CN(c1ccc(N[C@H]3CC[C@H](Nc4ncc(C(F)(F)F)nn4)C3)nc1)C2=O [Example 148] | 59800
O=C1c2ncc(F)cc2CN1c1ccc(N[C@H]2CC[C@H](Nc3ncc(C(F)(F)F)nn3)C2)nc1 [Example 153] | 34600
O=C1c2ncccc2CN1c1ccc(N[C@H]2CC[C@H](Nc3nc4cc(F)ccn4n3)C2)nc1 [Example 129] | 9640
O=C1c2ncccc2CN1c1ccc(N[C@H]2CC[C@H](Nc3ncc(OC(F)F)cn3)C2)nc1 [Example 57] | 41500
O=C1c2cccnc2CN1c1ccc(N[C@H]2CC[C@H](Nc3ncc(OC(F)F)cn3)C2)nc1 [Example 77] | 8080
Cc1cc2c(cn1)CN(c1ccc(N[C@H]3CC[C@H](Nc4nc5cc(C(F)(F)F)ccn5n4)C3)nc1)C2=O [Example 156] | 19700
O=C1c2cccc(C(F)(F)F)c2CN1c1ccc(N[C@H]2CC[C@H](Nc3ncc(C(F)(F)F)nn3)C2)nc1 [Example 158] | 22400
O=C1c2c(cccc2C(F)(F)F)CN1c1ccc(N[C@H]2CC[C@H](Nc3ncc(C(F)(F)F)nn3)C2)nc1 [Example 157] | 6200
O=C1c2ncccc2CN1c1ccc(N[C@H]2CC[C@H](Nc3ncc(OC(F)(F)F)cn3)C2)nc1 [Example 142] | 50800
O=C1c2cccnc2CN1c1ccc(N[C@H]2CC[C@H](Nc3ncc(C(F)(F)F)nn3)C2)nc1 [Example 145] | 12200
O=C1c2ncccc2CN1c1ccc(N[C@H]2CC[C@H](Nc3nc4cc(C(F)(F)F)ccn4n3)C2)nc1 [Example 143] | 11600
